procedure_text: physchem
conditions: pKa (third printed value)
observation_type: pKa

smiles_record	recorded_number
CCNC(=O)[C@@H]1CCCN1C(=O)[C@H](CCCNC(=N)N)NC(=O)[C@H](CC(C)C)NC(=O)[C@@H](Cc1c(C)[nH]c2ccccc12)NC(=O)[C@H](Cc1ccc(O)cc1)NC(=O)[C@H](CO)NC(=O)[C@H](Cc1c[nH]c2ccccc12)NC(=O)[C@H](Cc1c[nH]cn1)NC(=O)[C@@H]1CCC(=O)N1	12
